Biological target: 3-ketoacyl-CoA synthase 2 (Arabidopsis thaliana) (UniProt Q5XEP9)
Sequence (whole entry): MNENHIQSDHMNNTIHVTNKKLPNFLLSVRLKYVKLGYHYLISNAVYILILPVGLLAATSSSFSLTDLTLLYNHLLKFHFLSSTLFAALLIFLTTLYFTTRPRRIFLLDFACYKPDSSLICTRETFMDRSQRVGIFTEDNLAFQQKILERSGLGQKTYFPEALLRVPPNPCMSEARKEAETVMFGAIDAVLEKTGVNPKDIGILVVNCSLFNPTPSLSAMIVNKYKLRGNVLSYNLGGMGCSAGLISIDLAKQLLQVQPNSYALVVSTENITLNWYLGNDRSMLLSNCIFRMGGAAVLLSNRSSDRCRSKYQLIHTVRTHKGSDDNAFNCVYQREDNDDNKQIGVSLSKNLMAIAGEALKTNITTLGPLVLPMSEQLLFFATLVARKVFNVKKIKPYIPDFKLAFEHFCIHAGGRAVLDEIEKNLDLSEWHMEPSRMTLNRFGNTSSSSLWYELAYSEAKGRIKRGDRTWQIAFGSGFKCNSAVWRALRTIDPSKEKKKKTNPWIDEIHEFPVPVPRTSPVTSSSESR
Assay: Inhibition of Arbidopsis thaliana C-terminal His-tagged At1g04220 expressed in Saccharomyces cerevisiae INVSc1 at 100 uM after 18 to 20 hr by GC/MS analysis
Active and inactive are the calls of the source. No cut-off for these calls is given here.
# valid calls are active, inactive; nothing else

Solved cases below.
[[record]]
molecule = "CCS(=O)(=O)Oc1ccc2c(c1)C(C)(C)CO2 [BENFURESATE]"
category = "inactive"

[[record]]
molecule = "CC(C)N(C(=O)SCC(Cl)=C(Cl)Cl)C(C)C [TRIALLATE]"
category = "inactive"

[[record]]
molecule = "CCN(CC)C(=O)n1cnc(S(=O)(=O)c2c(C)cc(C)cc2C)n1 [CAFENSTROLE]"
category = "active"


From here, focus on the item given below.
Name the outcome recorded for CC(C)N(C(=O)COc1nnc(C(F)(F)F)s1)c1ccc(F)cc1 [FLUFENACET] in the assay. active
